The reader will find reported selectivity ratio values listed item by item below.
- Assay details: Selectivity index, ratio of CC50 for human HepG2 cells to MIC for Mycobacterium tuberculosis H37Rv
- Format: toxicity, cell-based
- Applied conditions: read-out: Selectivity Index

                               given_smiles     assay_endpoint  value_observed
0    COc1nc2ccccc2cc1/C=C/c1noc(-c2ccco2)n1  selectivity ratio          > 9.12
1  COc1nc2ccccc2cc1/C=C/c1noc(/C=C/c2ccccc2)n1  selectivity ratio          > 35.5
2  COc1nc2ccccc2cc1/C=C/c1noc(-c2ccc(C)cc2)n1  selectivity ratio          > 5.75

Req: Give selectivity ratio for the following compound: COc1nc2ccccc2cc1/C=C/c1noc(-c2ccc(F)cc2)n1
Resp: > 41

Req: Give selectivity ratio for the following compound: COc1nc2ccccc2cc1/C=C/c1noc(-c2cccc(Cl)c2)n1
Resp: > 2

Req: Give selectivity ratio for the following compound: COc1nc2ccccc2cc1/C=C/c1noc(-c2cccnc2)n1
Resp: > 1.6

Req: Give selectivity ratio for the following compound: COc1ccc(Cc2nc(/C=C/c3cc4ccccc4nc3OC)no2)cc1
Resp: > 535

---

The reader will find reported selectivity ratio values listed item by item below.
- Assay details: Selectivity index, ratio of CC50 for human HepG2 cells to MIC for Mycobacterium tuberculosis H37Rv
- Type: toxicity, cell-based
- Applied conditions: read-out: Selectivity Index

Consider the following illustrative entries.
>>> print(df.to_string())
                               given_smiles     assay_endpoint  value_observed
0         COCc1nc(/C=C/c2cc3ccccc3nc2OC)no1  selectivity ratio           > 610
1  COc1nc2ccccc2cc1/C=C/c1noc(-c2ccccc2Br)n1  selectivity ratio          > 11.6
2  COc1nc2ccccc2cc1/C=C/c1noc(-c2ccccc2C)n1  selectivity ratio          > 3.16
3  COc1nc2ccccc2cc1/C=C/c1noc(-c2ccc(Br)cc2)n1  selectivity ratio          > 21.2
4  COc1ccc(-c2nc(/C=C/c3cc4ccccc4nc3OC)no2)cc1  selectivity ratio          > 1.57

Req: Give selectivity ratio for the following compound: COc1ccccc1-c1nc(/C=C/c2cc3ccccc3nc2OC)no1
Resp: > 31.6

Req: Give selectivity ratio for the following compound: COc1nc2ccccc2cc1/C=C/c1noc(C)n1
Resp: > 285

Req: Give selectivity ratio for the following compound: COc1nc2ccccc2cc1/C=C/c1noc(COc2ccccc2)n1
Resp: > 330

Req: Give selectivity ratio for the following compound: COc1nc2ccccc2cc1/C=C/c1noc(Cc2ccccc2)n1
Resp: > 520

Req: Give selectivity ratio for the following compound: COc1nc2ccccc2cc1/C=C/c1noc(-c2ccccc2)n1
Resp: > 19.5

Req: Give selectivity ratio for the following compound: COc1cccc(-c2nc(/C=C/c3cc4ccccc4nc3OC)no2)c1
Resp: > 2.1

Req: Give selectivity ratio for the following compound: COc1nc2ccccc2cc1/C=C/c1noc(-c2cccc(C)c2)n1
Resp: > 2.09
